target-or-system: CDK1 (Homo sapiens)
Construct: purchased Carna Biosciences, Inc
Sequence (P06493 whole entry): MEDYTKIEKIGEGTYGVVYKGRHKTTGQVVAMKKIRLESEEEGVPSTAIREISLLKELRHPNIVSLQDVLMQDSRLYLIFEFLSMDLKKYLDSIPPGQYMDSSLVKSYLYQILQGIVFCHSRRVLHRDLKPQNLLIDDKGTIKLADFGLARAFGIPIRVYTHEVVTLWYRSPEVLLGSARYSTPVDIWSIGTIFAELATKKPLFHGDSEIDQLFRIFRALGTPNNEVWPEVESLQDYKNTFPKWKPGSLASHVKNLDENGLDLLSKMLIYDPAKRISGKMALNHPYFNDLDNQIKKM
Sequence (P14635 whole entry partner): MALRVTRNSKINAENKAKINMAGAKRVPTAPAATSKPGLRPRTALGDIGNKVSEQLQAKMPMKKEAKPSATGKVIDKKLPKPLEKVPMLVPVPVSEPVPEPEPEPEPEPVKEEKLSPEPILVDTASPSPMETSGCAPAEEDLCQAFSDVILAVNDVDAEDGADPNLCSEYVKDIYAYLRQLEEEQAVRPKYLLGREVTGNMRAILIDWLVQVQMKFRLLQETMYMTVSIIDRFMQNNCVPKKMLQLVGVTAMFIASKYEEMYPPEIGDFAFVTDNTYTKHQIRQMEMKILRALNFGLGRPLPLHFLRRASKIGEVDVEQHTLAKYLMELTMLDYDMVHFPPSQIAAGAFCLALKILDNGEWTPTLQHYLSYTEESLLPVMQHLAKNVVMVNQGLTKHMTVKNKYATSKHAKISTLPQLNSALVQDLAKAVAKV
run-description: CDK1 kinase activity inhibition (ADP-Glo)
Assay type: biochemical
condition-set: 50 μM ATP, 2 h at room temperature
measured-parameter: IC50

| test-smiles | measured-parameter | measured |
| --- | --- | --- |
| CC(=O)NC[C@H]1CCC(F)(F)CN1C(=O)c1cc(Nc2cc(OC(F)(F)F)ccn2)ccc1C | IC50 | > 10000 nM |
| COc1cc(Nc2ccc(C)c(C(=O)N3CC(F)(F)CC[C@@H]3CNC(C)=O)n2)ncc1Cl | IC50 | > 10000 nM |
| CCOc1ccnc(Nc2ccc(C)c(C(=O)N3CC(F)(F)CC[C@@H]3CNC(=O)OC)n2)c1 | IC50 | > 10000 nM |
